- Target entity: T1, human Glutaminase Interacting Protein (GIP) (human, UniProt O14907 1-124)
- T1 sequence (looked up): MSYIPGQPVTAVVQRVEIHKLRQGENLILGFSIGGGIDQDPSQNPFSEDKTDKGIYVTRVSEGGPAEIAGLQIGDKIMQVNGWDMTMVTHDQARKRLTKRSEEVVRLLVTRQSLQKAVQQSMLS
- Test protocol: NMR titration

{"columns": ["Binder", "binding result"],
 "data": [
  ["GSGTDLDAS [GSGTDLDAS peptide (synthetic)]", "binds"],
  ["GSSLDVTDN [GSSLDVTDN peptide (synthetic)]", "binds"],
  ["ESSVDLLDG [ESSVDLLDG peptide (synthetic)]", "binds"],
  ["ASSSVDDMA [ASSSVDDMA peptide (synthetic)]", "binds"]
]}
